Recorded values, source PubChem BioAssay AID1996.

- Test conditions: buffer; pH 7.4; 200.0 µM

Compound | solubility kinetic
CS(=O)(=O)N1CCCC(C(=O)Nc2ccc(F)c(F)c2)C1 (stereo unspecified) | > 47.8 µg/mL
CCOc1ccc(N2C(=O)c3ccccc3NC2(C)CC)cc1 (stereo unspecified) | > 46.6 µg/mL
O=C(NN=C1CCCCC1)c1ccccc1-n1cccc1 | > 42.2 µg/mL
COC(=O)CNC(=O)COC(=O)Cc1ccc(Cl)cc1 | > 45 µg/mL
O=C(CC(c1ccccc1)c1ccco1)N1CCCCC1 (stereo unspecified) | > 42.5 µg/mL
CN1C(=O)C2(OCC(CO)([N+](=O)[O-])CO2)c2ccccc21 (stereo unspecified) | > 44.1 µg/mL
